biological target: Axl (UniProt P30530); test: ELISA, 1:3 dilution
Sequence (P30530 26-451 limits assumed): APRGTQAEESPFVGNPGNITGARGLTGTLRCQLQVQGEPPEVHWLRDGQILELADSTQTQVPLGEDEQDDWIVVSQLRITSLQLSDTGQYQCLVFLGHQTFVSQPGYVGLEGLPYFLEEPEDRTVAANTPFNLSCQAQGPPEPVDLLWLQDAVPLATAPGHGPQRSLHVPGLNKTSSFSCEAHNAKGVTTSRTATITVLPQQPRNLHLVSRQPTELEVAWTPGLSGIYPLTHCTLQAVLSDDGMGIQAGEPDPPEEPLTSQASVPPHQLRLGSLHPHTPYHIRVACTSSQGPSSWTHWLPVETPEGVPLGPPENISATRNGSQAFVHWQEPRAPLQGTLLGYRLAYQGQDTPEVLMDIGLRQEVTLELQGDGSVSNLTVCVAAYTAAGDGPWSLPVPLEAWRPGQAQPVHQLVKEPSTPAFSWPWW
REPORTED ENDPOINT: Affinity ELISA CPE mutant ratio (1:3, pH 6.0/7.4)
Just the number, please.

q: Look at this binder and give its reported Affinity ELISA CPE mutant ratio (1:3, pH 6.0/7.4). HC-W110H (antibody, V domains shown) VH: EVQLVQSGAEVKKPGATVKISCKVSGYSFTGHTMNWIRQPPGKGLEWIGLIKPSNGGTSYNQKFKGRVTISADKSISTAYLQWSSLKASDTAMYYCAHGHYESYFAMDYHGQGTLVTVSS VL: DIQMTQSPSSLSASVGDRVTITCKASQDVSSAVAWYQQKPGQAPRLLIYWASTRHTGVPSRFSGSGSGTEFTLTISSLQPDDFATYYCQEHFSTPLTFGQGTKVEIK
a: 7.99

q: Look at this binder and give its reported Affinity ELISA CPE mutant ratio (1:3, pH 6.0/7.4). LC-A034D (antibody, V domains shown) VH: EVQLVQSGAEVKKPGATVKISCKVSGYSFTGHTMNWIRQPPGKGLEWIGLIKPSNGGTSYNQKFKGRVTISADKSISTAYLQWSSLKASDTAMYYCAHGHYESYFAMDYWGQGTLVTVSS VL: DIQMTQSPSSLSASVGDRVTITCKASQDVSSAVDWYQQKPGQAPRLLIYWASTRHTGVPSRFSGSGSGTEFTLTISSLQPDDFATYYCQEHFSTPLTFGQGTKVEIK
a: 3

q: Look at this binder and give its reported Affinity ELISA CPE mutant ratio (1:3, pH 6.0/7.4). LC-H091S (antibody, V domains shown) VH: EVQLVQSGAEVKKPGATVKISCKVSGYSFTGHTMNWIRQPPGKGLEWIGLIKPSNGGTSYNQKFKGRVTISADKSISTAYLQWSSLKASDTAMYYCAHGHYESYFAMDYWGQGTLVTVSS VL: DIQMTQSPSSLSASVGDRVTITCKASQDVSSAVAWYQQKPGQAPRLLIYWASTRHTGVPSRFSGSGSGTEFTLTISSLQPDDFATYYCQESFSTPLTFGQGTKVEIK
a: 1.76

q: Look at this binder and give its reported Affinity ELISA CPE mutant ratio (1:3, pH 6.0/7.4). HC-F105S (antibody, V domains shown) VH: EVQLVQSGAEVKKPGATVKISCKVSGYSFTGHTMNWIRQPPGKGLEWIGLIKPSNGGTSYNQKFKGRVTISADKSISTAYLQWSSLKASDTAMYYCAHGHYESYSAMDYWGQGTLVTVSS VL: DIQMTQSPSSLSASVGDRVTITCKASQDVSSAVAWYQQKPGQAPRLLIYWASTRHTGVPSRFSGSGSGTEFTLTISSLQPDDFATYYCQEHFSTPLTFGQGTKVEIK
a: 3.9

q: Look at this binder and give its reported Affinity ELISA CPE mutant ratio (1:3, pH 6.0/7.4). LC-A034Q (antibody, V domains shown) VH: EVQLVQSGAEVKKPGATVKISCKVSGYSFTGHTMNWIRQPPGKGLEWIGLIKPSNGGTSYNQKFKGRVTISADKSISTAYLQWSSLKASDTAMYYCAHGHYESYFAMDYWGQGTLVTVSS VL: DIQMTQSPSSLSASVGDRVTITCKASQDVSSAVQWYQQKPGQAPRLLIYWASTRHTGVPSRFSGSGSGTEFTLTISSLQPDDFATYYCQEHFSTPLTFGQGTKVEIK
a: 2

q: Look at this binder and give its reported Affinity ELISA CPE mutant ratio (1:3, pH 6.0/7.4). LC-P095K (antibody, V domains shown) VH: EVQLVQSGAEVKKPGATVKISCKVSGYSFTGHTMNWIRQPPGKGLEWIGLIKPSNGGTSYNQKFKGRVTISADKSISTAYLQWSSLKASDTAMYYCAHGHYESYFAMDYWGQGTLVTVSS VL: DIQMTQSPSSLSASVGDRVTITCKASQDVSSAVAWYQQKPGQAPRLLIYWASTRHTGVPSRFSGSGSGTEFTLTISSLQPDDFATYYCQEHFSTKLTFGQGTKVEIK
a: 3.84

q: Look at this binder and give its reported Affinity ELISA CPE mutant ratio (1:3, pH 6.0/7.4). LC-H091Y (antibody, V domains shown) VH: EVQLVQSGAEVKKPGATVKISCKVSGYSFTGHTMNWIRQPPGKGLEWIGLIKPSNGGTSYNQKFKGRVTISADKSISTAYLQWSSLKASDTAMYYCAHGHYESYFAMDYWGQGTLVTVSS VL: DIQMTQSPSSLSASVGDRVTITCKASQDVSSAVAWYQQKPGQAPRLLIYWASTRHTGVPSRFSGSGSGTEFTLTISSLQPDDFATYYCQEYFSTPLTFGQGTKVEIK
a: 3.93

q: Look at this binder and give its reported Affinity ELISA CPE mutant ratio (1:3, pH 6.0/7.4). LC-L096R (antibody, V domains shown) VH: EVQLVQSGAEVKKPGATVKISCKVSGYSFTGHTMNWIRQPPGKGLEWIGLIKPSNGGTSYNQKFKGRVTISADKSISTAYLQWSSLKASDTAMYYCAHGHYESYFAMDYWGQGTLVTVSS VL: DIQMTQSPSSLSASVGDRVTITCKASQDVSSAVAWYQQKPGQAPRLLIYWASTRHTGVPSRFSGSGSGTEFTLTISSLQPDDFATYYCQEHFSTPRTFGQGTKVEIK
a: 2.88

q: Look at this binder and give its reported Affinity ELISA CPE mutant ratio (1:3, pH 6.0/7.4). LC-A051I (antibody, V domains shown) VH: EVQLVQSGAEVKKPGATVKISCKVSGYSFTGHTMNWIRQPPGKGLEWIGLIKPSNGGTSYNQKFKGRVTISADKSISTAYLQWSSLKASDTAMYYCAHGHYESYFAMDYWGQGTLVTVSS VL: DIQMTQSPSSLSASVGDRVTITCKASQDVSSAVAWYQQKPGQAPRLLIYWISTRHTGVPSRFSGSGSGTEFTLTISSLQPDDFATYYCQEHFSTPLTFGQGTKVEIK
a: 2.24

q: Look at this binder and give its reported Affinity ELISA CPE mutant ratio (1:3, pH 6.0/7.4). LC-F092E (antibody, V domains shown) VH: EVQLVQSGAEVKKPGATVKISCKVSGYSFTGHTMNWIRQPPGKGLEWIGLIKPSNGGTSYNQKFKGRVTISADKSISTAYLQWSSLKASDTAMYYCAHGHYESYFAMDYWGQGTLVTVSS VL: DIQMTQSPSSLSASVGDRVTITCKASQDVSSAVAWYQQKPGQAPRLLIYWASTRHTGVPSRFSGSGSGTEFTLTISSLQPDDFATYYCQEHESTPLTFGQGTKVEIK
a: 1.76

Where do these numbers come from? They come from patent US20250276075A1.
